Cited source for all entries: the supplement of paper PMC8967900

- Test system: 697
- protocol notes: selective drug sensitivity score (sDSS, relative to normal bone marrow) (sDSS (score)); higher = more potent and effective on the cell line relative to normal bone marrow cells;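 further: ALL cell lines in 384-well plates, five doses spanning 10,000-fold, each plate scaled between vehicle and 100 µmol/L benzalkonium chloride controls, sDSS an adapted area-under-curve metric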
- settings: 72 h
experimental endpoint: selective drug sensitivity score
Reply with just the number.

COc1ccc(-c2ccc3ncc4c(c3c2)n(-c2ccc(N3CCNCC3)c(C(F)(F)F)c2)c(=O)n4C)cn1 [NVP-BGT226] (top concentration 1000 nM) on 697 gives selective drug sensitivity score = 14.2

CCC(C)n1ncn(-c2ccc(N3CCN(c4ccc(OCC5COC(Cn6cncn6)(c6ccc(Cl)cc6Cl)O5)cc4)CC3)cc2)c1=O (stereo not drawn) [Itraconazole] (top concentration 5000 nM) on 697 gives selective drug sensitivity score = 0.18

Please look at the following compound next.
COc1ncc(-c2ccc3nccc(-c4ccnnc4)c3c2)cc1NS(=O)(=O)c1ccc(F)cc1F [Omipalisib] (top concentration 1000 nM) on 697 gives selective drug sensitivity score = 11.9

---

- Test system: NALL-1
- protocol notes: selective drug sensitivity score (sDSS, relative to normal bone marrow) (sDSS (score)); higher = more potent and effective on the cell line relative to normal bone marrow cells
- settings: 72 h
experimental endpoint: selective drug sensitivity score
Reply with just the number.

See these solved cases before continuing.
Cc1[nH]c2ccccc2c1CCNCc1ccc(/C=C/C(=O)NO)cc1 [Panobinostat] (top concentration 1000 nM) on NALL-1 gives selective drug sensitivity score = -0.46

C[C@@H](Oc1cc(-n2cnc3ccc(CN4CCN(C)CC4)cc32)sc1C(N)=O)c1ccccc1C(F)(F)F (top concentration 10000 nM) on NALL-1 gives selective drug sensitivity score = 5.82

Please look at the following molecule next.
CC(=O)Nc1ccc(C(=O)Nc2ccccc2N)cc1 [Tacedinaline] (top concentration 1000 nM) on NALL-1 gives selective drug sensitivity score = -0.02

---

Listing of entries alongside the reported selective drug sensitivity score.
- Test system: P12-ICHIKAWA
- protocol notes: selective drug sensitivity score (sDSS, relative to normal bone marrow) (sDSS (score)); higher = more potent and effective on the cell line relative to normal bone marrow cells
- settings: 72 h

Measured selective drug sensitivity score of CCS(=O)(=O)c1cccc(-c2cc(C(=O)NC3CCN(C)CC3)c(C)c3[nH]c4ncc(C)cc4c23)c1 [TAK-901] (top concentration 1000 nM) : 12.3

Measured selective drug sensitivity score of COc1cc(OC2CCN(C)CC2)ccc1Nc1ncc2c(n1)n(C1CCCC1)c(=O)n2C [AZ3146] (top concentration 10000 nM) : 0.64

Measured selective drug sensitivity score of O=C(O)c1ccc(O)c2ncccc12 [IOX-1] (top concentration 100000 nM) : 4.34

Measured selective drug sensitivity score of Cc1cnc(-c2ccccc2C(C)C)nc1NCc1ccc(-n2ccnn2)cc1 [ML323] (top concentration 10000 nM) : 1.74

Please look at the following molecule next.
Measured selective drug sensitivity score of Cn1cc(C2=C(c3cn(C4CCN(Cc5ccccn5)CC4)c4ccccc34)C(=O)NC2=O)c2ccccc21 [Enzastaurin] (top concentration 10000 nM) : 4.66

---

Listing of entries alongside the reported selective drug sensitivity score.
- Tested on: KARPAS-45
- protocol notes: selective drug sensitivity score (sDSS, relative to normal bone marrow) (sDSS (score)); higher = more potent and effective on the cell line relative to normal bone marrow cells
- settings: 72 h
Reply with just the number.

See these solved cases before continuing.
Measured selective drug sensitivity score of C[C@@H]1CN(CC(=O)Nc2ccc3c(c2)Cc2cccc(-c4cc(=O)cc(N5CCOCC5)o4)c2S3)C[C@H](C)O1 (top concentration 25000 nM) : 1.72

Measured selective drug sensitivity score of C=CC(=O)Nc1cc2c(Nc3ccc(F)c(Cl)c3)ncnc2cc1OCCCN1CCOCC1 [Canertinib] (top concentration 10000 nM) : -0.24

Others:
Measured selective drug sensitivity score of O=c1[nH]c(=O)n([C@H]2C[C@H](O)[C@@H](CO)O2)cc1F [Floxuridine] (top concentration 10000 nM) : -1.38

Measured selective drug sensitivity score of CC[C@@H]1C(=O)N(C)c2cnc(Nc3ccc(C(=O)N[C@H]4CC[C@H](N5CCN(CC6CC6)CC5)CC4)cc3OC)nc2N1C(C)C [Volasertib] (top concentration 1000 nM) : 19

Measured selective drug sensitivity score of Nc1nc(Cl)nc2c1ncn2[C@H]1C[C@H](O)[C@@H](CO)O1 [Cladribine] (top concentration 1000 nM) : -15.7

Measured selective drug sensitivity score of CN(C)C(=O)c1cc2cnc(Nc3ccc(N4CCNCC4)cn3)nc2n1C1CCCC1 [Ribociclib] (top concentration 10000 nM) : 0.68

Measured selective drug sensitivity score of CC[C@@](C)(Nc1ccnc(-c2c[nH]c3ncccc23)n1)C(=O)NCC(F)(F)F [Decernotinib] (top concentration 10000 nM) : -3.94
